Molecular target: CCR2 (Homo sapiens)
Construct: Membranes were prepared from THP-1 cells; endogenous in cells
Experiment: CCR2 receptor membrane binding assay ([125I]MCP-1, THP-1 cell membranes, SPA beads)
Conditions: dissociation constant hKi; [125I]MCP-1 binding to THP-1 membranes
measurement-label: Ki (nM)
Numbers only; they are read as nM.

Query :: // Input: `CCc1c(NCCc2ccc(Cl)c(Cl)c2)ncnc1C(=O)N1CCC(N2CCOCC2)CC1` . Output its Ki only.
Result :: 1010

Query :: // Input: COC1CCN(C2CCN(C(=O)c3ncnc(NCC4CCCN(c5ccccc5)C4)c3C)CC2)CC1 (stereo not drawn) . Output its Ki only.
Result :: 665

Query :: // Input: `Cc1c(NCc2ccc(C(C)(C)C)cc2)ncnc1C(=O)N1CCC(N2CCC(n3c(C)nnc3C)CC2)CC1` . Output its Ki only.
Result :: 731

====

Target: CCR2 (Homo sapiens, UniProt P41597)
Construct: Membranes were prepared from THP-1 cells; endogenous in cells; host or cells: THP-1 cells (membrane preparation)
Sequence (P41597 1-360 isoform P41597-2): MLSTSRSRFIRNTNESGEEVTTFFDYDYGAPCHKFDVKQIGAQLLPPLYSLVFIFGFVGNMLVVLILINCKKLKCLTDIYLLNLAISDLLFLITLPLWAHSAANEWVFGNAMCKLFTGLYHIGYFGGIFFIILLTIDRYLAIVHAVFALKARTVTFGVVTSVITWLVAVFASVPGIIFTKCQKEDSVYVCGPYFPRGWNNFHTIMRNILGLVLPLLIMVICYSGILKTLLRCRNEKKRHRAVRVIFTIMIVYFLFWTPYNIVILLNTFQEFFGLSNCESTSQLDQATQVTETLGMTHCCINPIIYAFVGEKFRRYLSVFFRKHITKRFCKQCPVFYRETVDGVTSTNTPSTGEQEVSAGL
Experiment: CCR2 receptor membrane binding assay ([125I]MCP-1, THP-1 cell membranes, SPA beads)
Conditions: @ 10 μM test compound; THP-1 membranes; read-out: CCR2 % ctrl @ 10 μM
measurement-label: remaining activity at 10 µM
Answer format: number, then unit.

Query :: // Input: Cc1c(NCCc2ccc(F)c(F)c2)ncnc1C(=O)N1CCC(N2CCCCC2)CC1 [Example 132] . Output its remaining activity at 10 µM only.
Result :: 31%

Query :: // Input: Cc1c(NCCCc2ccccc2)ncnc1C(=O)N1CCC(N2CCC(O)CC2)CC1 [Example 17] . Output its remaining activity at 10 µM only.
Result :: 18%

Query :: // Input: COC1COCCC1N(C)C1CCN(C(=O)c2ncnc(NCc3ccc(C(C)(C)C)cc3)c2C)CC1 (stereo not drawn) [Example 275b] . Output its remaining activity at 10 µM only.
Result :: 3%

====

Molecular target: CCR2 (Homo sapiens)
Construct: Membranes were prepared from THP-1 cells; endogenous in cells
Assay: CCR2 receptor membrane binding assay ([125I]MCP-1, THP-1 cell membranes, SPA beads)
Conditions: dissociation constant hKi; [125I]MCP-1 binding to THP-1 membranes
pKi: −log10 of the molar value.
Decide using pKi: a value greater than or equal to 6 is T, a smaller one is F.

Query :: Record `CNC(=O)C1CN(C2CCN(C(=O)c3ncnc(NCc4ccc(Cl)c(Cl)c4)c3C)CC2)C1` ; criterion: pKi no lower than 6. Met?
Result :: F

Query :: Record CCOC(=O)N1CCC(NC2CCN(C(=O)c3ncnc(NCc4ccc(C(C)(C)C)cc4)c3C)CC2)C(OC)C1 (stereo not shown) [Example 228e] ; criterion: pKi no lower than 6. Met?
Result :: F

Query :: Record CC(=O)N1CCC[C@@H](NC2CCN(C(=O)c3ncnc(NCc4ccc(C(C)(C)C)cc4)c3C)CC2)C1 [Example 228gc] ; criterion: pKi no lower than 6. Met?
Result :: T

Query :: Record `Cc1c(NCc2ccc(C(C)(C)C)cc2)ncnc1C(=O)N1CCC(N2CC[C@@H](C(N)=O)C2)CC1` ; criterion: pKi no lower than 6. Met?
Result :: T

Query :: Record Cc1c(NCC2CCCC(c3ccc(F)cc3)C2)ncnc1C(=O)N1CCC(N2CCC(N(C)S(C)(=O)=O)CC2)CC1 (stereo not shown) [Example 159z] ; criterion: pKi no lower than 6. Met?
Result :: T

Query :: Record `Cc1c(NCc2ccc(C(C)C)cc2)ncnc1C(=O)N1CCC(N2CCC(N(C)S(C)(=O)=O)CC2)CC1` ; criterion: pKi no lower than 6. Met?
Result :: T

Query :: Record `Cc1c(NCc2ccc(Cl)c(C(F)(F)F)c2)ncnc1C(=O)N1CCC(N2CCC(O)CC2)CC1` ; criterion: pKi no lower than 6. Met?
Result :: T

Query :: Record `Cc1c(C(=O)N2CCC(N3CCC(NS(C)(=O)=O)CC3)CC2)ccnc1NCc1ccc(Cl)c(Cl)c1` ; criterion: pKi no lower than 6. Met?
Result :: F

Query :: Record Cc1c(NCC2CCC(C)CC2)ncnc1C(=O)N1CCC(N2CCC(N(C)S(C)(=O)=O)CC2)CC1 (stereo not shown) [Example 159l] ; criterion: pKi no lower than 6. Met?
Result :: T

Query :: Record Cc1c(NCCc2ccc(Cl)c(Cl)c2)ncnc1C(=O)N1CCC(N2CCC(O)C2)CC1 (stereo not shown) ; criterion: pKi no lower than 6. Met?
Result :: T

Query :: Record Cc1ccc([C@H]2CC[C@@H](CNc3ncnc(C(=O)N4CCC(N5CCC(N(C)S(C)(=O)=O)CC5)CC4)c3C)O2)cc1 [Example 159jb] ; criterion: pKi no lower than 6. Met?
Result :: T

Query :: Record `Cc1c(NCCc2ccc(Cl)c(Cl)c2)ncnc1C(=O)N1CCC(N2CCC[C@@H](NS(C)(=O)=O)C2)CC1` ; criterion: pKi no lower than 6. Met?
Result :: F

Query :: Record Cc1c(NC[C@H]2C[C@@H](c3ccccc3)C2)ncnc1C(=O)N1CCC(N2CCC(N(C)S(C)(=O)=O)CC2)CC1 [Example 159yb] ; criterion: pKi no lower than 6. Met?
Result :: T

Query :: Record Cc1c(NCC2CCCN(c3ccc(C#N)c(Cl)c3)C2)ncnc1C(=O)N1CCC(N2CCC(N(C)S(C)(=O)=O)CC2)CC1 (stereo not shown) ; criterion: pKi no lower than 6. Met?
Result :: T

Query :: Record CO[C@@H]1COCC[C@@H]1NC1CCN(C(=O)c2nc(C)nc(NC[C@H]3C[C@@H](c4ccccc4)C3)c2C)CC1 [Example 275dc] ; criterion: pKi no lower than 6. Met?
Result :: T
